system: LCLC-103H; experiment: relative viability (nuclei count vs DMSO), 5 days (fraction); higher = more cells survive; conditions: first compound 0.0002 µM
reportedEndpoint: relative viability
Write no unit; give the number alone.

CC(=O)O[C@@]12CO[C@@H]1C[C@H](O)[C@@]1(C)C(=O)[C@H](O)C3=C(C)[C@@H](OC(=O)[C@H](O)[C@@H](NC(=O)OC(C)(C)C)c4ccccc4)C[C@@](O)([C@@H](OC(=O)c4ccccc4)[C@H]21)C3(C)C [Docetaxel] + Nc1nc2[nH]cc(CCc3ccc(C(=O)N[C@@H](CCC(=O)O)C(=O)O)cc3)c2c(=O)[nH]1 [Pemetrexed] (partner 0.2 µM) has a reported relative viability of 0.495
